experiment: Toxicity of single-dose NCNU ip in normal mice (deaths); set-up: species or system CDFl mice; settings: in vivo, 16.0 mg/mouse ip, at day 4
Measured quantity: mortality at 96 h (%)
Answer with a number only, understood to be in %.

Just so you know, measured mortality at 96 h for `CC(C)(C)CNC(=O)N(CCCl)N=O` came out at 100

* * *

assay: Toxicity of single-dose NCNU ip in normal mice (deaths); set-up: species or system CDFl mice; conditions: mouse, in vivo, 150 mg/kg ip, at day 11
Measured quantity: mortality at 264 h (%)
Report the figure in % without appending any unit label.

mortality at 264 h reading for `CC(C)(C)CNC(=O)N(CCCl)N=O` : 100

* * *

experiment: Toxicity of single-dose NCNU ip in normal mice (deaths); parameters: species or system CDFl mice; conditions: in vivo, 1.0 mg/mouse ip
Measured quantity: mortality (%)
Respond numerically; units are % and should not be typed.

Looking up CC(C)(C)CNC(=O)N(CCCl)N=O [NCNU] , I see its mortality listed as 0

* * *

experiment: Chemical stability of isocyanates; format: physicochemical; details: physiological pH and temperature
Answer each item with its documented half-life.

Just so you know, measured half-life for CC(C)(C)CCN=C=O [neohexyl isocyanate] came out at > 30 min

Lab note: measured half-life of CC(C)(C)CN=C=O [neopentyl isocyanate] was > 30 min

* * *

assay: Toxicity of single-dose NCNU ip in normal mice (deaths); set-up: species or system CDFl mice; details: in vivo, 2.0 mg/mouse ip, at day 13, others survived
Measured quantity: mortality at 312 h
Just so you know, I need the unit written after the number.

The reported mortality at 312 h of the molecule `CC(C)(C)CNC(=O)N(CCCl)N=O` was 60%

* * *

Test: Toxicity of single-dose NCNU ip in normal mice (deaths)
Set-up: species or system CDFl mice
Conditions: mouse, in vivo, 250 mg/kg ip, at day 8
Description: Toxicity studies were conducted by injecting a single dose of NCNU ip. Toxicity of NCNU in CDFl Normal Mice
Measured quantity: mortality at 192 h (%)
Just the number in %, nothing appended.

Entry `CC(C)(C)CNC(=O)N(CCCl)N=O` — recorded mortality at 192 h = 100

Origin of values: patent US4423076A
